- Test system: P. falciparum 3D7 parasites
- PROCEDURE_TEXT: P. falciparum growth inhibition assay, 2-cycle (120 h treatment), delayed-death screen and dose-response
- Assay type: cell-based, Plasmodium falciparum
- CONDITION_SET: Plasmodium falciparum, 3D7; P. falciparum, 120 h, screen at 2 μg/mL, replicate 1; read-out: Pf_120h_%Growth_Rep1
Give activity at 2 µg/mL for every item shown.
Answer in %, number only, no unit symbol.

// query Requested read-out: activity at 2 µg/mL. Entry: CC[C@H](C)[C@@H](OC(C)=O)[C@@H](C)C1=CC(=O)C2=C(O[C@]3(C)CC[C@H]4O[C@@H](C(C)(C)O)CC[C@]4(C)[C@H]3[C@@H]2O)C1=O
// result 75.8

// query Moving on to CCCCCCCCCCCCCCCC(=O)OC[C@@H](NC(=O)C(Cl)Cl)[C@H](O)c1ccc([N+](=O)[O-])cc1 [Chloramphenicol palmitate]
// result 101

// query Moving on to CCCCCCCCCCC[C@@H](C[C@@H]1OC(=O)[C@H]1CCCCCC)OC(=O)[C@H](CC(C)C)NC=O [Tetrahydrolipstatin]
// result 171

// query Moving on to C/C=C/C/C=C/CCC(=O)[C@H]1O[C@H]1C(N)=O
// result 137
